Target: G9 polypeptide (Homo sapiens, UniProt Q7Z7M8)
Construct: made in house
Sequence (Q7Z7M8 26-397): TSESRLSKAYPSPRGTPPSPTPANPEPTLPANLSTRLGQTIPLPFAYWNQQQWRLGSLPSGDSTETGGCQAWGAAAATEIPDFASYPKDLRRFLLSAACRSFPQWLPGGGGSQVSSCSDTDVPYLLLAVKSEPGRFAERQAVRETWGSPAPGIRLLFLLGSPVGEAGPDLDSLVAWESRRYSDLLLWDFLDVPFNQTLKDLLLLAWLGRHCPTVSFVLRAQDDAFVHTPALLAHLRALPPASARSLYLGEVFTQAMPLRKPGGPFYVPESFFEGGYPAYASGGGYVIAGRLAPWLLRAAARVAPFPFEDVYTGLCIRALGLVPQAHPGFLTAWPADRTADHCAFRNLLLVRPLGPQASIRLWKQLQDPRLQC
Assay: Divalent metal ion requirement of G9 enzyme activity
Assay type: biochemical
Details: metal ions at 2.5, 10 and 40 mM instead of 10 mM MnCl2, FIG. 2B
OBSERVABLE: effect of divalent metal ion on G9 activity (in words)

In [3]: df
Out[3]:
                   compound                       experimental_target     observed_measurement
0  [Cl][Ni][Cl] [Ni, NiCl2]  G9 polypeptide (Homo sapiens, UniProt Q7Z7M8)  slight enhancing effect
1  [Cl][Cd][Cl] [Cd, CdCl2]  G9 polypeptide (Homo sapiens, UniProt Q7Z7M8)  slight enhancing effect
